Source: PubChem BioAssay

- Test: reversal of MRP1-mediated doxorubicin resistance, pilot screen, H69AR cells, doxorubicin co-treatment (AID 601)
- Conditions: H69AR cells + 2 uM doxorubicin, CellTiter-Glo, 72 h; measured here: viability with 2 uM doxorubicin; at 10 µM; stronger effect = lower value
Param label: returns fulfilled when viability < 90%, returns not fulfilled otherwise, including exact equality.

I wonder whether Cc1ccc(OCC(O)Cn2c(=N)n(CCN3CCCCC3)c3ccccc32)cc1 (stereo unspecified) has viability below 90%. Can you tell? fulfilled

I wonder whether "O=C(CSc1nnc(-c2cccs2)o1)N1CCOCC1" has viability below 90%. Can you tell? not fulfilled

I wonder whether "Cc1ccc(C)c(N2CCN(C(=O)C3CCN(S(=O)(=O)c4c(C)noc4C)CC3)CC2)c1" has viability below 90%. Can you tell? fulfilled
